Test system: A549
Test: Cytotoxicity against human A549 cells by SRB assay
Assay type: functional, cell-based
pIC50: −log10 of the molar value.
endpoint name: pIC50

molecule	experimental system	data value
C[C@@]12CCC[C@@](C)(C(=O)O)[C@H]1[C@H](O)[C@H](O)[C@@]13C[C@H](CC[C@@H]21)[C@](CO)(O[C@@H]1O[C@H](CO)[C@@H](O)[C@H](O)[C@H]1O)C3 [PHARBOSIDE F]	A549	< 4.52
C[C@@]12CCC[C@@](C)(C(=O)O)[C@H]1[C@H](O)[C@H](O)[C@@]13C[C@H](CC[C@@H]21)[C@](O)(CO)C3	A549	< 4.52
C[C@@]12CCC[C@@](C)(C(=O)O)[C@H]1[C@H](O)[C@H](O)[C@@]13C[C@H](CC[C@@H]21)[C@@](O)(CO)C3	A549	< 4.52
